List of IC50 values.
Target: T1, Active phosphorylated His6-tagged ERK2 WT (rat (p-0033 says mouse), UniProt P63086 3-358, phosphorylated (active form; sites not given))
T1 construct: ERK2 (MAPK1); rat numbering; Same plasmid as the crystallised protein m9, but phosphorylated; also called WT ERK2; His6-ERK2; source: E. coli BL21(DE3), co-expressed with GST-MEK1ΔN3, purified (Talon resin)
Assay: competitive peptide kinase assay; D-peptide titrated as competitive inhibitor of 10 nM ERK2 on 5 μM D-site dependent reporter peptide (AQT0376), 10 μM ATP; 54 mM HEPES pH 7.4, 1.2 mM DTT, 0.01% Brij-35, 1% glycerol, 0.2 mg/ml BSA, 10 mM MgCl2; fluorescence read-out; IC50 as relative binding affinity
Details: both partners purified
Square brackets hold non-standard residues; d marks the D form. Ends that are not written are not given here.
Give your result in µM as a bare value.

In the examples that follow, each entry is paired with its recorded IC50.
YARIARRGLPRLAVSD (not fully specified (some residues), ISG20, human, residues 168-181 with the changes; numbers count on: the 14-mer peptide (position 1 = Ile168); also called ISG20^I1R/R2I; source: synthetic peptide (GenScript)) [ISG20 D-peptide I1R/R2I] | 200
YAIRARRGLPRLAVSD (not fully specified, ISG20, human, residues 168-181; also called ISG20^WT; ISG20 peptide WT; source: synthetic peptide (GenScript)) [ISG20 D-peptide WT (competitive kinase assay form, with N-terminal Tyr-Ala)] | 5.4
YANRARRGLPRLAVSD (not fully specified (some residues), ISG20, human, residues 168-181 with the change; numbers count on: the 14-mer peptide (position 1 = Ile168); also called ISG20^I1N; source: synthetic peptide (GenScript)) [ISG20 D-peptide I1N] | 190

Let's switch to this binder now.
input: Query: IC50; subject: [dY][dA][dI][dR][dA][dR][dR][dQ][dL][dP][dR][dL][dA][dV][dS][dD] (ISG20, human, residues 168-181 with the change; numbers count on: the 14-mer peptide (position 1 = Ile168); also called ISG20^G6Q; source: synthetic peptide (GenScript)) [ISG20 D-peptide G6Q]
output: 41
